The reported numbers originate from patent US10344019B2.

Attribute: EC50
- System: HCV 1a RLuc cells (dicistronic genotype 1a H77 replicon, RLuc reporter)
- EXPERIMENTAL PROTOCOL: microbe, parasite or virus in culture
- Assay type: cell-based
- CONDITION SET: Hepatitis C virus, genotype 1a H77 RLuc replicon; read-out: 1a

[
  {
    "COMPOUND": "COC[C@H]1C[C@@H](c2ncc(-c3ccc4c(c3)COc3cc5c(ccc6nc([C@@H]7CCCN7C(=O)[C@@H](NC(=O)OC)C(C)C)[nH]c65)cc3-4)[nH]2)N(C(=O)[C@H](NC(=O)OC)c2ccccc2)C1",
    "RESULT": "0.001 to 0.999 nM"
  }
]

Turning now to a further record.
[Q] What EC50 value was documented for this compound, CC[C@H](C)[C@H](NC(=O)OC)C(=O)N1C[C@@H](C)C[C@H]1c1ncc(-c2ccc3c(c2)COc2cc4c(ccc5nc([C@@H]6C[C@H](COC)CN6C(=O)[C@@H](NC(=O)OC)C(C)C)[nH]c54)cc2-3)[nH]1 ?
[A] 0.001 to 0.999 nM

* * *

- Tested on: HCV 2a JFH-1 Rluc cells (dicistronic genotype 2a JFH-1 replicon, RLuc reporter)
- EXPERIMENTAL PROTOCOL: microbe, parasite or virus in culture
- Type: cell-based
- CONDITION SET: Hepatitis C virus, 72 h, Table 2; genotype 2a JFH-1 replicon, 72 hours; read-out: 2a JFH
- Protocol: Evaluation of cell-based anti-HCV activity: Antiviral potency (EC50) was determined using a Renilla luciferase (RLuc)-based HCV replicon reporter assay. […] 72 hours later, cells were lysed and Renilla luciferase activity quantified as recommended by the manufacturer (Promega-Madison, Wis.). […]
TEST READOUT: EC50

[
  {
    "MOLECULE": "COC(=O)N[C@H](C(=O)N1CC2(C[C@H]1c1ncc(-c3ccc4c(c3)C(F)(F)c3cc(-c5ccc6nc(C7[C@H]8CC[C@H](C8)N7C(=O)[C@@H](NC(=O)OC)C(C)C)[nH]c6c5)ccc3-4)[nH]1)OCCO2)C(C)C (some centres unmarked) [Example 38]",
    "TARGET": "HCV 2a JFH-1 Rluc cells (dicistronic genotype 2a JFH-1 replicon, RLuc reporter)",
    "EC50": "1000 to 44000 pM"
  },
  {
    "MOLECULE": "COC(=O)N[C@H](C(=O)N1[C@@H]2CC[C@@H](C2)[C@H]1c1nc2ccc(-c3ccc4c(c3)C(F)(F)c3cc(-c5cnc([C@@H]6CCCN6C(=O)[C@H](NC(=O)OC)c6ccccc6)[nH]5)ccc3-4)cc2[nH]1)C(C)C [Example 41]",
    "TARGET": "HCV 2a JFH-1 Rluc cells (dicistronic genotype 2a JFH-1 replicon, RLuc reporter)",
    "EC50": "1 to 999 pM"
  },
  {
    "MOLECULE": "COC(=O)N[C@H](C(=O)N1CCC[C@H]1c1ncc(-c2ccc3c(c2)C(F)(F)c2cc(-c4ccc5nc([C@@H]6[C@H]7CC[C@H](C7)N6C(=O)[C@H](NC(=O)OC)c6ccccc6)[nH]c5c4)ccc2-3)[nH]1)C(C)C [Example 40]",
    "TARGET": "HCV 2a JFH-1 Rluc cells (dicistronic genotype 2a JFH-1 replicon, RLuc reporter)",
    "EC50": "1 to 999 pM"
  },
  {
    "MOLECULE": "COC(=O)N[C@H](C(=O)N1CCC[C@H]1c1nc2ccc3cc(-c4ccc5c(ccc6nc([C@@H]7[C@H]8CC[C@H](C8)N7C(=O)[C@@H](NC(=O)OC)[C@@H](C)OC)[nH]c65)c4)ccc3c2[nH]1)C(C)C [Example 64]",
    "TARGET": "HCV 2a JFH-1 Rluc cells (dicistronic genotype 2a JFH-1 replicon, RLuc reporter)",
    "EC50": "1 to 999 pM"
  },
  {
    "MOLECULE": "COC(=O)NC(C(=O)N1CCC[C@H]1c1ncc(-c2ccc(-c3ccc4c(ccc5nc([C@@H]6[C@H]7CC[C@H](C7)N6C(=O)[C@@H](NC(=O)OC)[C@@H](C)OC)[nH]c54)c3)cc2)[nH]1)C(C)C (some centres unmarked) [Example 66]",
    "TARGET": "HCV 2a JFH-1 Rluc cells (dicistronic genotype 2a JFH-1 replicon, RLuc reporter)",
    "EC50": "1 to 999 pM"
  },
  {
    "MOLECULE": "COC(=O)N[C@H](C(=O)N1CCC[C@H]1c1ncc(-c2ccc3cc(-c4ccc(-c5cnc([C@@H]6[C@@H]7CC[C@@H](C7)N6C(=O)[C@@H](NC(=O)OC)C(C)C)[nH]5)cc4)ccc3c2)[nH]1)C(C)C [Example 52]",
    "TARGET": "HCV 2a JFH-1 Rluc cells (dicistronic genotype 2a JFH-1 replicon, RLuc reporter)",
    "EC50": "1000 to 44000 pM"
  }
]

[Q] What EC50 value was documented for this molecule, COC(=O)N[C@H](C(=O)N1CCC[C@H]1c1nc2ccc3cc(-c4ccc(-c5cnc([C@@H]6CC7(CN6C(=O)[C@H](C(C)C)C(C)C(=O)OC)OCCO7)[nH]5)cc4)ccc3c2[nH]1)[C@@H](C)OC (some centres unmarked) [Example 80] ?
[A] 1 to 999 pM

[Q] Request: COC(=O)N[C@H](C(=O)N1CCC[C@H]1c1ncc(-c2ccc3c(c2)CCc2cc(-c4cnc([C@@H]5[C@H]6CC[C@H](C6)N5C(=O)[C@@H](NC(=O)OC)C5CCOCC5)[nH]4)ccc2-3)[nH]1)C1CCOCC1 [Example 79]
[A] 1 to 999 pM
